Assay: Spontaneous hydrolysis in human plasma
Format: in vitro ADME
Details: human plasma; read-out: t1/2 for spontaneous hydrolysis
Provide the reported log10(half-life) of each item.
Hey, these are logged values: log10 of half-life, min being the unit before logging.

Provide one value: measured log10(half-life) of COc1oc(=O)c2cc(NC(=N)N)ccc2c1Cl
0.83

Specify reported log10(half-life) for the molecule shown: CCOc1oc(=O)c2cc(NC(=N)N)ccc2c1Cl
0.91

Provide only the value of recorded log10(half-life) for N=C(N)Nc1ccc2c(Cl)c(OCCc3ccccc3)oc(=O)c2c1
0.65

Return the recorded log10(half-life) value; entry: N=C(N)SCCCOc1oc(=O)c2ccccc2c1Cl
-0.30

Provide only the value of recorded log10(half-life) for N=C(N)SCCCOc1oc(=O)c2cc(N)ccc2c1Cl
2.22

----------
Exercise: state measured kinact/KI for each of the compounds provided.
Molecular target: human thrombin (Homo sapiens)
Construct: human thrombin
Assay: Inactivation rate of human thrombin
Assay type: biochemical
Conditions: Table VIII; pH 7.5, 25° C; [I] 1.2-54 μM; read-out: kobs/[I]
Record the value in M⁻¹ s⁻¹, omitting the unit from your answer.

Tell us which kinact/KI value is on record for CC(C)NC(=O)Nc1ccc2c(Cl)c(OCCSC(=N)N)oc(=O)c2c1
5000

Please give measured kinact/KI of the following entry: N=C(N)SCCOc1oc(=O)c2cc(NC(=O)Nc3cccc4ccccc34)ccc2c1Cl
5800

Determine from records and report kinact/KI for N=C(N)SCCOc1oc(=O)c2cc(NC(=O)Nc3ccccc3)ccc2c1Cl
22400

Identify measured kinact/KI associated with CC(C)(C)OC(=O)N[C@@H](Cc1ccccc1)C(=O)Nc1ccc2c(Cl)c(OCCCSC(=N)N)oc(=O)c2c1
520

Return kinact/KI (reported value) for this compound: N=C(N)SCCOc1oc(=O)c2cc(NC(=O)[C@@H](N)Cc3ccccc3)ccc2c1Cl
1340

Specify reported kinact/KI for the compound shown: N=C(N)SCCOc1oc(=O)c2cc(NC(=S)Nc3ccccc3)ccc2c1Cl
21400

----------
Provide the recorded half-life for the entries that follow.
Assay: Spontaneous hydrolysis in Hepes buffer
Format: physicochemical
Settings: hepes buffer; 0.1 Hepes, 0.5M NaCl, pH 7.5, 9% Me2SO, 25° C; read-out: t1/2 for spontaneous hydrolysis
Output spec: scalar in h, unitless text.

Given the compound CCOc1cc2ccc(NC(=N)N)cc2c(=O)o1 , write its reported half-life.
2.27

Dear colleague, please send me the reported half-life for N=C(N)SCCCOc1oc(=O)c2ccccc2c1Cl when you can.
1.65

Supply measured half-life of N=C(N)SCCOc1oc(=O)c2ccccc2c1Cl in your reply.
1.38

Give the reported half-life for this compound. CCOc1oc(=O)c2cc(NC(=N)N)ccc2c1Cl
0.65

Look up and report measured half-life for this entry: N=C(N)Nc1ccc2c(Cl)c(OCCc3ccccc3)oc(=O)c2c1
0.6

Indicate the recorded half-life value for this compound: COc1cc2ccc(NC(=N)N)cc2c(=O)o1
4.2

For the compound N=C(N)Nc1ccc2cc(OCCc3ccccc3)oc(=O)c2c1 , report half-life.
2.33

For the compound NCCCOc1oc(=O)c2ccccc2c1Cl , give its measured half-life value.
2.05

Look up half-life of NCCCOc1cc2ccccc2c(=O)o1 and report it.
10.1

Look up and report measured half-life for this entry: COc1oc(=O)c2cc(NC(=N)N)ccc2c1Cl
0.733
